systemUnderTest: Alpha-1A adrenergic receptor (Homo sapiens, UniProt P35348)
Sequence (P35348 whole entry): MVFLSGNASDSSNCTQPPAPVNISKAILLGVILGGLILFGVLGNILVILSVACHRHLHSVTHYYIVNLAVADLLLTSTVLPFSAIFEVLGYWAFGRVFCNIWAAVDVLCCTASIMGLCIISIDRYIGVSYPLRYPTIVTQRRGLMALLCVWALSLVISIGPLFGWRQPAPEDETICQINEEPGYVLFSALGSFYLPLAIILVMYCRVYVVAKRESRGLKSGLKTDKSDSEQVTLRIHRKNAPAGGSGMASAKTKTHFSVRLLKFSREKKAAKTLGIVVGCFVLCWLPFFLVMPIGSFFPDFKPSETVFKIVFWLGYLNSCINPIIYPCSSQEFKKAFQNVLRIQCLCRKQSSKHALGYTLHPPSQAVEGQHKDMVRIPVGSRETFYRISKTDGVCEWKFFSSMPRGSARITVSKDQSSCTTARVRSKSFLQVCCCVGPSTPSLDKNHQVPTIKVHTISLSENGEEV
assay: Displacement of 7-methoxy-[3H]-prazosin from human alpha1A-adrenoreceptor expressed in CHOK1 cell membranes after 60 mins by TopCount liquid scintillation counting method
experimentalReadout: Ki (nM)
Kindly answer with a numeric value in nM, unit omitted.

molecule CNc1ccc2c(c1)C(NCCOc1cc(F)ccc1F)CCS2(=O)=O (configuration not stated) , Ki observed: 350

====

systemUnderTest: Alpha-1D adrenergic receptor (Rattus norvegicus)
assay: Antagonist activity at alpha1D-adrenoreceptor in Wistar rat bladder strips assessed as relaxation of PHE-induced contractile response after 30 mins
Format: functional
Here the recorded IC30 is given for each entry.
Quick reminder: number only, in nM, skip the unit.

Below are worked cases with known answers.
• CNc1ccc2c(c1)C(NCCOc1cc(F)ccc1F)CCS2(=O)=O (centres undefined) = 80
• O=S1(=O)CCC(NCCOc2cc(F)ccc2Cl)c2ccccc21 (centres undefined) = 54
• CS(=O)(=O)c1ccc(Cl)cc1CNCCOc1cc(F)ccc1Cl = 250

Recorded IC30 (molecule CNc1ccc2c(c1)[C@@H](NCCOc1cc(F)ccc1F)CCS2(=O)=O ): 5.5

Hello, the source for this data is ChEMBL document CHEMBL4190310, in case you need it.
